system: PhgR/P_H16_RS05530 phenylglyoxylate biosensor (pEH155); assay: relative induction of RFP reporter vs primary effector; higher = stronger activation; conditions: inducer concentration 5 mM; 6 h; Cupriavidus necator H16; minimal medium + 0.4% gluconate
readout_kind: relative induction of RFP reporter (%)
Numbers only here, please. The scale is %.

Ask | Note down relative induction of RFP reporter recorded for O=C(O)C1CCCCC1 [cyclohexane-1-carboxylate]
Reply | -0.472

Ask | Note down relative induction of RFP reporter recorded for NCCC(=O)O
Reply | -0.344

Ask | Note down relative induction of RFP reporter recorded for C=C(CC(=O)O)C(=O)O [itaconate]
Reply | -0.453

Ask | Note down relative induction of RFP reporter recorded for O=CO [formate]
Reply | -0.511

Ask | Note down relative induction of RFP reporter recorded for O=C(O)CCO [3-hydroxypropanoate]
Reply | -0.286

Ask | Note down relative induction of RFP reporter recorded for CC(=O)C(C)O (centres undefined)
Reply | -0.461

Ask | Note down relative induction of RFP reporter recorded for N[C@@H](Cc1ccccc1)C(=O)O
Reply | -0.485

Ask | Note down relative induction of RFP reporter recorded for O=C(O)c1ccc(O)c(O)c1 [3,4-dihydroxybenzoate]
Reply | -0.535

Ask | Note down relative induction of RFP reporter recorded for O=C(O)c1ccccc1O [salicylate]
Reply | -0.369

---

test system: heterologous inducible system pEH020 (rhamnose/acrylate/cumate/itaconate set); assay: relative induction of RFP reporter vs primary effector (background-corrected); higher = stronger activation of the biosensor; details: inducer concentration 5 mM; 6 h; Cupriavidus necator H16; minimal medium + 0.4% gluconate;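 further: RFP excited at 585 nm with emission read at 620 nm, culture medium blanks subtracted from fluorescence and absorbance prior to normalisation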
readout_kind: relative induction of RFP reporter (%)
Numbers only here, please. The scale is %.

Ask | Note down relative induction of RFP reporter recorded for O=C(O)CC(=O)C(=O)O [oxaloacetate]
Reply | -0.323

Ask | Note down relative induction of RFP reporter recorded for Cn1c(=O)c2c(ncn2C)n(C)c1=O
Reply | -0.176

Ask | Note down relative induction of RFP reporter recorded for CCCC(=O)O
Reply | -1.33

Ask | Note down relative induction of RFP reporter recorded for O=c1cc[nH]c(=O)[nH]1
Reply | 0.742

Ask | Note down relative induction of RFP reporter recorded for N[C@@H](Cc1c[nH]c2ccccc12)C(=O)O
Reply | -1.17

Ask | Note down relative induction of RFP reporter recorded for NCC(N)C(=O)O (stereo unspecified) [2,3-diaminopropanoate]
Reply | -0.419

Ask | Note down relative induction of RFP reporter recorded for NCC(O)C(=O)O (stereo unspecified) [3-amino-2-hydroxypropanoate]
Reply | -1.25

Ask | Note down relative induction of RFP reporter recorded for Oc1ccccc1O
Reply | -0.684

Ask | Note down relative induction of RFP reporter recorded for O=C(O)c1c(O)cccc1O [2,6-dihydroxybenzoate]
Reply | 2.01

Ask | Note down relative induction of RFP reporter recorded for C[C@H](N)C(=O)O
Reply | -1.6

Ask | Note down relative induction of RFP reporter recorded for NCC(=O)O
Reply | -0.252

Ask | Note down relative induction of RFP reporter recorded for O=C(O)C1=CCCCC1 [cyclohexene-1-carboxylate]
Reply | 0.24

Ask | Note down relative induction of RFP reporter recorded for Oc1ccc(O)cc1 [hydroquinone]
Reply | -0.0999

Ask | Note down relative induction of RFP reporter recorded for O=c1[nH]cnc2nc[nH]c12
Reply | -1.8

Ask | Note down relative induction of RFP reporter recorded for CC(=O)CCC(=O)O
Reply | -1.82

Ask | Note down relative induction of RFP reporter recorded for NCCc1ccc(O)c(O)c1
Reply | 0.433

Ask | Note down relative induction of RFP reporter recorded for O=C(O)c1cccnc1 [nicotinate]
Reply | -1.31

Ask | Note down relative induction of RFP reporter recorded for Cn1cnc2c1c(=O)[nH]c(=O)n2C
Reply | -0.957

Ask | Note down relative induction of RFP reporter recorded for O=C(O)[C@@H](O)[C@@H](O)[C@H](O)[C@@H](O)C(=O)O [glucarate]
Reply | 0.067

Ask | Note down relative induction of RFP reporter recorded for O=C(O)C[C@H](O)C(=O)O [L-malate]
Reply | -0.286

Ask | Note down relative induction of RFP reporter recorded for C[C@@H](O)C(=O)O [D-lactate]
Reply | -0.802

Ask | Note down relative induction of RFP reporter recorded for O=C(O)c1cc(=O)c2ccccc2[nH]1 [kynurenate]
Reply | -2.26

Ask | Note down relative induction of RFP reporter recorded for O=C(O)C1CCCC1 [cyclopentane-1-carboxylate]
Reply | 0.409

Ask | Note down relative induction of RFP reporter recorded for C[C@H](O)C(=O)O [L-lactate]
Reply | -1.63

Ask | Note down relative induction of RFP reporter recorded for O=C(O)CCC(=O)O [succinate]
Reply | -1.2

Ask | Note down relative induction of RFP reporter recorded for O=C(O)/C=C\C=C/C(=O)O [cis,cis-muconate]
Reply | 0.263
